Values were extracted from patent USH1209H.

# assay: Baboon plasma analyses (total plasma radioactivity clearance and unchanged radioligand)
# condition-label: baboon, plasma, iv, % of ^18 F in CH3 CN as [^18 F]-N-Methylspiroperidol, baboon plasma, 120 min after injection
quantity-name: remaining at 2 h
Be sure to follow the number with its unit.

What measured remaining at 2 h goes with CN1CN(c2ccccc2)C2(CCN(CCCC(=O)c3ccc([18F])cc3)CC2)C1=O [[^18 F]-N-methylspiroperidol] ?
26%

---

# assay: Baboon plasma analyses (total plasma radioactivity clearance and unchanged radioligand)
# condition-label: baboon, plasma, iv, % of ^18 F in CH3 CN as [^18 F]-N-Methylspiroperidol, baboon plasma, 30 min after injection
quantity-name: remaining at 0.5 h (%)
Only the number, expressed in %, is required.

Fill in the blank: the reported remaining at 0.5 h of CN1CN(c2ccccc2)C2(CCN(CCCC(=O)c3ccc([18F])cc3)CC2)C1=O [[^18 F]-N-methylspiroperidol] is ____.
32

---

# assay: Tissue distribution of radioactivity in mice
# Assay type: in vivo, mouse
# condition-label: mouse small intestine, 5 min; mean of three mice, range 4.0-4.8; read-out: Tissue distribution, % Dose/g
quantity-name: tissue uptake at 5 min (%ID/g)
Express the result in %ID/g but write the number alone.

# query: tissue uptake at 5 min of entry CN1CN(c2ccccc2)C2(CCN(CCCC(=O)c3ccc([18F])cc3)CC2)C1=O [[^18 F]-N-methylspiroperidol]
4.3
